The measurements presented in this section are drawn from PubChem BioAssay (NCI).

Items are presented alongside their recorded growth.
- System: MDA-MB-231 breast
- Assay method text: NCI-60 one-dose screen, 48 h (100 = growth as untreated, 0 = no growth, -100 = all killed)
- Protocol conditions: 10 µM unless noted
Compounds without any hit were thinned out: in the full panel of roughly 83,000, 20% have a hit.
Field: numeric (%). Do not append units.

Sample records with growth:
[
  {
    "Structure string": "COc1ccc(C(=S)N2CCN(c3cccc(C)c3)CC2)cc1OC",
    "Target or test system": "MDA-MB-231 breast",
    "growth, %": 77.3
  },
  {
    "Structure string": "O=C(/C=C/c1sc(Cl)nc1Cl)c1ccccc1",
    "Target or test system": "MDA-MB-231 breast",
    "growth, %": 98.7
  },
  {
    "Structure string": "CCOC(=O)c1sc2ncc(-c3ccc(C)cc3)n2c1C",
    "Target or test system": "MDA-MB-231 breast",
    "growth, %": 85.6
  },
  {
    "Structure string": "CCCCNC(=O)Oc1ccc(/C(=C(\\C)c2ccc(Cl)cc2)c2ccc(OCCN(CC)CC)cc2)cc1",
    "Target or test system": "MDA-MB-231 breast",
    "growth, %": 70.2
  }
]

Consider now this further compound.
Value of measured growth for the entry `CCCCOc1nc2ccc(OC)cc2cc1-c1cc(-c2ccc(Cl)cc2)nc(-c2ccc(Cl)cc2)c1` : 93.5
